Recorded log10(GI50) for the following compounds
Tested on: ACHN
measurement description: Tested in vitro for cytotoxicity against human tumor cell line ACHN (renal).
Format: functional
observable: log10(GI50) (log10 of the value in nM)

- compound: "CCc1c2c(nc3ccc(O)cc13)-c1cc3c(c(=O)n1C2OCCF)COC(=O)[C@]3(O)CC (stereo partly specified)"
  tested on: "ACHN"
  data value: 3.90
- compound: "CC[C@@]1(O)C(=O)OCc2c1cc1n(c2=O)C(OCC(F)(F)F)c2cc3cc(O)ccc3nc2-1 (stereo partly specified)"
  tested on: "ACHN"
  data value: 2.00
- compound: "CCc1c2c(nc3cccc(OC)c13)-c1cc3c(c(=O)n1C2OCCO)COC(=O)[C@]3(O)CC (stereo partly specified)"
  tested on: "ACHN"
  data value: 3.58
- compound: "CC[C@@]1(O)C(=O)OCc2c1cc1n(c2=O)C(OCCO)c2cc3c([N+](=O)[O-])cccc3nc2-1 (stereo partly specified)"
  tested on: "ACHN"
  data value: 3.53
- compound: "CCc1c2c(nc3cccc(OC)c13)-c1cc3c(c(=O)n1C2OCCOC)COC(=O)[C@]3(O)CC (stereo partly specified)"
  tested on: "ACHN"
  data value: 2.72
- compound: "CC[C@@]1(O)C(=O)OCc2c1cc1n(c2=O)C(OCCF)c2cc3cc(O)ccc3nc2-1 (stereo partly specified)"
  tested on: "ACHN"
  data value: 2.70
